// KINOMEscan: JNK1 lookup, one value per entry
# target-desc: panel of 442 kinases (Homo sapiens)
# Construct: purchased KINOMEscan
# Assay type: binding
# conditions: Compound Concentration 10 µM
// return just the number, without any unit appended

// known answers, use as guide
compound_smiles=COc1cc(C(=O)N2CCC(N3CCN(C)CC3)CC2)ccc1Nc1ncc2c(n1)N(C1CCCC1)c1ccccc1C(=O)N2C observed=38
compound_smiles=COc1cc(C(=O)N2CCC(N3CCN(C)CC3)CC2)ccc1Nc1ncc2c(n1)N(C)c1ccccc1C(=O)N2C observed=95
compound_smiles=CCOc1cc(C(=O)N2CCC(N3CCN(C)CC3)CC2)ccc1Nc1ncc2c(n1)N(C1CCCC1)c1ccccc1C(=O)N2C observed=76

Now look at this entry.
The recorded KINOMEscan: JNK1 for entry COc1cc(C(=O)N2CCC(N3CCN(C)CC3)CC2)ccc1Nc1ncc2c(n1)N1CCc3cccc(c31)C(=O)N2C equals 63

* * *

# target-desc: panel of 442 kinases (Homo sapiens)
# Construct: purchased KINOMEscan
# Format: binding
# conditions: Compound Concentration 10 µM
readout: KINOMEscan: ARK5
Answer with a bare number; do not write a unit.

compound="COc1cc(C(=O)N2CCC(N3CCN(C)CC3)CC2)ccc1Nc1ncc2c(n1)N(C1CCCC1)c1ccccc1C(=O)N2C [Compound 25]" target_desc="panel of 442 kinases (Homo sapiens)" readout="KINOMEscan: ARK5" observed=90
compound="CCOc1cc(C(=O)N2CCC(N3CCN(C)CC3)CC2)ccc1Nc1ncc2c(n1)N(C1CCCC1)c1ccccc1C(=O)N2C [Compound 26]" target_desc="panel of 442 kinases (Homo sapiens)" readout="KINOMEscan: ARK5" observed=100
compound="COc1cc(C(=O)N2CCC(N3CCN(C)CC3)CC2)ccc1Nc1ncc2c(n1)N1CCc3cccc(c31)C(=O)N2C [Compound 24]" target_desc="panel of 442 kinases (Homo sapiens)" readout="KINOMEscan: ARK5" observed=68

Okay, now this compound:
KINOMEscan: ARK5 reading for COc1cc(C(=O)N2CCC(N3CCN(C)CC3)CC2)ccc1Nc1ncc2c(n1)N(C)c1ccccc1C(=O)N2C [15 (LRRK2-IN-1)] : 47

* * *

The following compounds are shown together with reported % Ctrl, TLK2 values.
# target-desc: panel of 442 kinases (Homo sapiens, UniProt Q86UE8)
# Construct: purchased KINOMEscan
# Sequence (Q86UE8 whole entry): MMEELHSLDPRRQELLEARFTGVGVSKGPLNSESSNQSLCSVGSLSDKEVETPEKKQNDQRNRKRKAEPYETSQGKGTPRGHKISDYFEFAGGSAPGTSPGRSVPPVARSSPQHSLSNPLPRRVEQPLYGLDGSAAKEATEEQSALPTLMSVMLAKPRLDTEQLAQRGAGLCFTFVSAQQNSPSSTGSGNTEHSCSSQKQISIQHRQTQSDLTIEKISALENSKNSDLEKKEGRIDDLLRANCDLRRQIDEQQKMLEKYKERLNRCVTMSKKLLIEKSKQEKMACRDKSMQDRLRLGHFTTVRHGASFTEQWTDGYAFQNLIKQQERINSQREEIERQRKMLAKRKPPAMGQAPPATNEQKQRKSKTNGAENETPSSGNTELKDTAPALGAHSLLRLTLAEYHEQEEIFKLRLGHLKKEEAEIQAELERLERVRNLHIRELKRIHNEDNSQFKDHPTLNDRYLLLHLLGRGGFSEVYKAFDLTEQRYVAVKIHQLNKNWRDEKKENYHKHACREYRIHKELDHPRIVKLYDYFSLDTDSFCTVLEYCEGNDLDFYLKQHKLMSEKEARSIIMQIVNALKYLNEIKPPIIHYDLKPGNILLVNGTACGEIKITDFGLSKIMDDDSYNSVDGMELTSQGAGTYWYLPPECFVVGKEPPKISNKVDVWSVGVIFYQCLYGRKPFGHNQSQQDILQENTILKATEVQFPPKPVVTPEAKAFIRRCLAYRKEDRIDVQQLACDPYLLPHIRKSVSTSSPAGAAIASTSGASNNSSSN
# Assay type: binding
# conditions: kinase TLK2; compound concentration 10 µM
Provide only the numeric value, understood in % Ctrl.

A selection of reference data follows.
compound="COc1cc(C(=O)N2CCC(N3CCN(C)CC3)CC2)ccc1Nc1ncc2c(n1)N(C1CCCC1)c1ccccc1C(=O)N2C [Compound 25]" readout="% Ctrl, TLK2" observed=94
compound="COc1cc(C(=O)N2CCC(N3CCN(C)CC3)CC2)ccc1Nc1ncc2c(n1)N1CCc3cccc(c31)C(=O)N2C [Compound 24]" readout="% Ctrl, TLK2" observed=98
compound="CCOc1cc(C(=O)N2CCC(N3CCN(C)CC3)CC2)ccc1Nc1ncc2c(n1)N(C1CCCC1)c1ccccc1C(=O)N2C [Compound 26]" readout="% Ctrl, TLK2" observed=100

Recorded result, COc1cc(C(=O)N2CCC(N3CCN(C)CC3)CC2)ccc1Nc1ncc2c(n1)N(C)c1ccccc1C(=O)N2C [15 (LRRK2-IN-1)] , % Ctrl, TLK2: 99
